# target_entity: 72 kDa type IV collagenase (Homo sapiens, UniProt P08253)
# Sequence (P08253 whole entry): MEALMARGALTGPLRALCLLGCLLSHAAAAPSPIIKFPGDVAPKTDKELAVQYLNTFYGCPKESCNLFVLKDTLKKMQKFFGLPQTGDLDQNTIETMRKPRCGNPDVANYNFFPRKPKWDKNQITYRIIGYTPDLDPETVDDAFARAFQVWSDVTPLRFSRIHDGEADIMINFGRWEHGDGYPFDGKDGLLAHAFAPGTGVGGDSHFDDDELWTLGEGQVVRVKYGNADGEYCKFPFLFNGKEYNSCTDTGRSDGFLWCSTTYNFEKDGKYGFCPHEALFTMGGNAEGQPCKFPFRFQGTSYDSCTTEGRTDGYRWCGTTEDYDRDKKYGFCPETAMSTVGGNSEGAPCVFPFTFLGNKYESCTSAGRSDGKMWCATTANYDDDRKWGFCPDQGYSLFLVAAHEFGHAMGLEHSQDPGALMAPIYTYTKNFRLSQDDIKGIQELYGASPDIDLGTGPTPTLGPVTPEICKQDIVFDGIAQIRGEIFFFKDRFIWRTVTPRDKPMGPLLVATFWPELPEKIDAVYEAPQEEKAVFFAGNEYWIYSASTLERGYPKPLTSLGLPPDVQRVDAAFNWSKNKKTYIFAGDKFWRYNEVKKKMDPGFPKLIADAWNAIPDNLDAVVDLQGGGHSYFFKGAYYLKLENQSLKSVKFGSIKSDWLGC
# run_description: Dose Response validation of uHTS RPN11 inhibitor hits using a MMP-2 Fluorescence assay.
# Assay type: functional
The source made the active and inactive calls.
Can you tell me IC50 for the items I'm about to list?

Quick one: IC50 for `COc1ccccc1-c1cc(C(=O)Nc2cc(C)nn2-c2ccccc2)no1` ?
> 100 µM (inactive)

For the molecule `CCN(CC)CCOC(=O)c1ccc(N/C=C(/C#N)c2nc(-c3ccc4c(c3)OCO4)cs2)cc1` , what IC50 is on record?
> 100 µM (inactive)

What measured IC50 goes with `COC(=O)c1c(-c2cccnc2)csc1NC(=O)c1ccc2c(c1)OCO2` ?
> 100 µM (inactive)

Given `COc1cc(/C=C2\SC(c3ccc(C)cc3)=NC2=O)cc(OC)c1O` , state its recorded IC50.
42.1 µM (active)

====

Would you mind telling me the reported EC50 of each entry?
# run_description: inhibitors of SNCA 5'UTR-driven reporter translation, confirmation, H4 neuroglioma cells, luminescence (AID 1988)
# Assay type: functional, cell-based
Calls of active or inactive are those of the source.

Recorded EC50 for `CCCCCCn1c(SCC(C)C)nc2c1c(=O)[nH]c(=O)n2C` , please?
18.8 µM (active)

Can you share its EC50? I mean this compound: `O=C(/C=C/c1ccc(F)cc1)NC(=S)NNC(=O)c1cnccn1`
> 120 µM (not active)

Requested read-out: EC50. Entry: `COc1ccc(-c2cc(-c3cccnc3)c(C#N)c(N)n2)cc1`
23 µM (active)

Request the reported EC50 associated with `COc1cccc(/C=N/Nc2nc(Nc3ccccc3)nc(-n3nc(C)cc3C)n2)c1O`
8.28 µM (active)

====

# target_entity: Nucleotide-binding oligomerization domain-containing protein 2 (Homo sapiens, UniProt Q9HC29)
# Sequence (Q9HC29 whole entry, the tested form may be a part): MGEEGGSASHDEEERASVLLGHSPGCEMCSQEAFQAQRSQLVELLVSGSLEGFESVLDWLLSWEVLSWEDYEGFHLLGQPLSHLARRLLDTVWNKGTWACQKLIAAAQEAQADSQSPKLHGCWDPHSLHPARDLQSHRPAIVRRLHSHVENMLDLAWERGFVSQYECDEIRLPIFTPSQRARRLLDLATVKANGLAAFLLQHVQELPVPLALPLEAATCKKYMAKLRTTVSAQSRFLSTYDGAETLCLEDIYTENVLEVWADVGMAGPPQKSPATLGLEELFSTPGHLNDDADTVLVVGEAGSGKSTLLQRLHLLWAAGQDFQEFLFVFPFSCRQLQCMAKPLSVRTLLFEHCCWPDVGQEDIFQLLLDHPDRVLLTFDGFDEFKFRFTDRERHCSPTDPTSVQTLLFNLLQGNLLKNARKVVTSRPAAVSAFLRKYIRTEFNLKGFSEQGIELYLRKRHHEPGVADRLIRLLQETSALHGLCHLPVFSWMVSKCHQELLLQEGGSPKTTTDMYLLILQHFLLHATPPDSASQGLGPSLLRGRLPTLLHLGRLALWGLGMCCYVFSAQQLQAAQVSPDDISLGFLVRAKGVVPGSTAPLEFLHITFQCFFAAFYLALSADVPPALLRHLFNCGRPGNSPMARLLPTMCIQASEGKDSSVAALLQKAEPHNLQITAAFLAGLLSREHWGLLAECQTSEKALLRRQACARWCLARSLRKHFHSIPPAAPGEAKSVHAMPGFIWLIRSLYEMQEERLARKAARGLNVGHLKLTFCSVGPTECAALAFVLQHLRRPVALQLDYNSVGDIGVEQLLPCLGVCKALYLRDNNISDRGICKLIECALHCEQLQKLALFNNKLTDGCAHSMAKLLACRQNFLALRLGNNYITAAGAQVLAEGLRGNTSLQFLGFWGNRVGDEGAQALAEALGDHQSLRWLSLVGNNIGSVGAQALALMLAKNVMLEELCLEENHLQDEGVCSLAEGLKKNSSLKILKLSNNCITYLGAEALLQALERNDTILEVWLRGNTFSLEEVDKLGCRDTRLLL
# run_description: NOD2 signaling inhibitors, cell-based, luminescence, uHTS, HEK293 (AID 1566)
# Assay type: functional
Calls of active or inactive are those of the source.
Log the outcome using a class from TRUE (active), FALSE (inactive)

Which result was noted for this compound in the test: `Cc1ccc(C(=O)NC(=C(Cl)Cl)S(=O)(=O)c2ccc(Cl)cc2)cc1`
FALSE

Which outcome did this test record for the compound `O=C(Cc1ccc(Br)cc1)Nc1ncc([N+](=O)[O-])s1` ?
FALSE

Dear colleague, could you share the recorded outcome for `O=C(COc1ccc(Cl)cc1)Nc1nc(-c2ccc(S(=O)(=O)N3CCOCC3)cc2)cs1` when you have a moment?
TRUE

Which result was noted for this compound in the test: `CCN(c1ccccc1)S(=O)(=O)c1ccc(NC(=O)c2nc(S(C)(=O)=O)ncc2Cl)cc1`
FALSE

For `CCCCn1c(=O)c(C(=O)Nc2cnccn2)c(O)c2ccccc21` , what call appears in the results of this test?
TRUE

====

# target_entity: Cytochrome P450 1A2 (Homo sapiens, UniProt P05177);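 note: PubChem cytochrome P450 panel assay, CYP1A2 panel member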
# Sequence (P05177 whole entry): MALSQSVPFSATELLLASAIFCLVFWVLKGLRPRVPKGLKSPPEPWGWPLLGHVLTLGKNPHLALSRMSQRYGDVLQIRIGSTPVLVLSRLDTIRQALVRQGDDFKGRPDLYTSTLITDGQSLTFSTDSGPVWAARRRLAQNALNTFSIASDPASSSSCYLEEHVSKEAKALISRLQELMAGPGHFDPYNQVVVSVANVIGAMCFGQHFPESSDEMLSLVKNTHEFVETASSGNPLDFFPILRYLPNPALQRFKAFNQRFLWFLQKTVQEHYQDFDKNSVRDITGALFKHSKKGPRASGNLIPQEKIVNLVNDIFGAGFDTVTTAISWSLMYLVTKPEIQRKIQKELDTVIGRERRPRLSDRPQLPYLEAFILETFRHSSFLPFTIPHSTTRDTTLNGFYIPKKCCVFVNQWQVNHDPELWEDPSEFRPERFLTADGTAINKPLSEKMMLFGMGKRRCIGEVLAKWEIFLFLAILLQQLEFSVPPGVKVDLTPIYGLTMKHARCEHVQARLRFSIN
parameter_measured: AC50

What does the data say about its AC50? Entry: `COc1ccc(-c2oc3ccccc3c(=O)c2OC(=O)c2ccc(C)cc2)cc1`
1.41 µM (inconclusive)

May I ask what AC50 has been recorded for `C[C@@]12C=CC(=O)C=C1CC[C@@H]1C2=CC[C@]2(C)[C@@H]1CC[C@H]2C(=O)CN1CCN(c2cc(N3CCCC3)nc(N3CCCC3)n2)CC1` ?
12.6 µM (inconclusive)

I would be grateful if you could share the reported AC50 for COC(=O)C1CC1C(NC(=O)[C@@H]1CCCN1)c1ccccc1 (stereo not given in full) .
15.8 µM (inconclusive)

For the molecule shown here, `NCCCC(=O)O` , give the reported AC50.
31.6 µM (inconclusive)

Dear colleague, I am looking for the recorded AC50 of the following molecule: `COc1ccc(NC(=O)N2CCC3(CC2)CCN(C(=O)c2ccco2)CC3)cc1`
20 µM (inconclusive)

For the molecule shown here, `C=CCNC1=C(C(=O)CCC(=O)OC)C(=O)CC(C)(C)C1` , give the reported AC50.
2.51 µM (inconclusive)

Param item = O=C1CSC(c2ccccc2F)N1c1cc(Cl)ccc1O (stereo not given) ; retrieve measured AC50.
39.8 µM (inconclusive)

Consider the molecule `NC1=NC2(CCCCCC2)n2c(nc3ccccc32)N1` and give its measured AC50.
28.2 µM (inconclusive)

# AC50 lookup, item Cc1sc(NC(=O)C2C3CCC(O3)C2C(=O)O)c(C(=O)OC(C)C)c1-c1ccc(Cl)cc1 (stereo not given)
22.4 µM (inconclusive)

Quick check: AC50 of `Cc1ccc(NC(=O)Cn2cnc3c(cnn3C(C)(C)C)c2=O)cc1` ?
31.6 µM (inconclusive)

====

# target_entity: Voltage-dependent T-type calcium channel subunit alpha-1H (Homo sapiens);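 note: channel activity triggered by adding a high calcium stimulation buffer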
# Sequence (O95180 whole entry): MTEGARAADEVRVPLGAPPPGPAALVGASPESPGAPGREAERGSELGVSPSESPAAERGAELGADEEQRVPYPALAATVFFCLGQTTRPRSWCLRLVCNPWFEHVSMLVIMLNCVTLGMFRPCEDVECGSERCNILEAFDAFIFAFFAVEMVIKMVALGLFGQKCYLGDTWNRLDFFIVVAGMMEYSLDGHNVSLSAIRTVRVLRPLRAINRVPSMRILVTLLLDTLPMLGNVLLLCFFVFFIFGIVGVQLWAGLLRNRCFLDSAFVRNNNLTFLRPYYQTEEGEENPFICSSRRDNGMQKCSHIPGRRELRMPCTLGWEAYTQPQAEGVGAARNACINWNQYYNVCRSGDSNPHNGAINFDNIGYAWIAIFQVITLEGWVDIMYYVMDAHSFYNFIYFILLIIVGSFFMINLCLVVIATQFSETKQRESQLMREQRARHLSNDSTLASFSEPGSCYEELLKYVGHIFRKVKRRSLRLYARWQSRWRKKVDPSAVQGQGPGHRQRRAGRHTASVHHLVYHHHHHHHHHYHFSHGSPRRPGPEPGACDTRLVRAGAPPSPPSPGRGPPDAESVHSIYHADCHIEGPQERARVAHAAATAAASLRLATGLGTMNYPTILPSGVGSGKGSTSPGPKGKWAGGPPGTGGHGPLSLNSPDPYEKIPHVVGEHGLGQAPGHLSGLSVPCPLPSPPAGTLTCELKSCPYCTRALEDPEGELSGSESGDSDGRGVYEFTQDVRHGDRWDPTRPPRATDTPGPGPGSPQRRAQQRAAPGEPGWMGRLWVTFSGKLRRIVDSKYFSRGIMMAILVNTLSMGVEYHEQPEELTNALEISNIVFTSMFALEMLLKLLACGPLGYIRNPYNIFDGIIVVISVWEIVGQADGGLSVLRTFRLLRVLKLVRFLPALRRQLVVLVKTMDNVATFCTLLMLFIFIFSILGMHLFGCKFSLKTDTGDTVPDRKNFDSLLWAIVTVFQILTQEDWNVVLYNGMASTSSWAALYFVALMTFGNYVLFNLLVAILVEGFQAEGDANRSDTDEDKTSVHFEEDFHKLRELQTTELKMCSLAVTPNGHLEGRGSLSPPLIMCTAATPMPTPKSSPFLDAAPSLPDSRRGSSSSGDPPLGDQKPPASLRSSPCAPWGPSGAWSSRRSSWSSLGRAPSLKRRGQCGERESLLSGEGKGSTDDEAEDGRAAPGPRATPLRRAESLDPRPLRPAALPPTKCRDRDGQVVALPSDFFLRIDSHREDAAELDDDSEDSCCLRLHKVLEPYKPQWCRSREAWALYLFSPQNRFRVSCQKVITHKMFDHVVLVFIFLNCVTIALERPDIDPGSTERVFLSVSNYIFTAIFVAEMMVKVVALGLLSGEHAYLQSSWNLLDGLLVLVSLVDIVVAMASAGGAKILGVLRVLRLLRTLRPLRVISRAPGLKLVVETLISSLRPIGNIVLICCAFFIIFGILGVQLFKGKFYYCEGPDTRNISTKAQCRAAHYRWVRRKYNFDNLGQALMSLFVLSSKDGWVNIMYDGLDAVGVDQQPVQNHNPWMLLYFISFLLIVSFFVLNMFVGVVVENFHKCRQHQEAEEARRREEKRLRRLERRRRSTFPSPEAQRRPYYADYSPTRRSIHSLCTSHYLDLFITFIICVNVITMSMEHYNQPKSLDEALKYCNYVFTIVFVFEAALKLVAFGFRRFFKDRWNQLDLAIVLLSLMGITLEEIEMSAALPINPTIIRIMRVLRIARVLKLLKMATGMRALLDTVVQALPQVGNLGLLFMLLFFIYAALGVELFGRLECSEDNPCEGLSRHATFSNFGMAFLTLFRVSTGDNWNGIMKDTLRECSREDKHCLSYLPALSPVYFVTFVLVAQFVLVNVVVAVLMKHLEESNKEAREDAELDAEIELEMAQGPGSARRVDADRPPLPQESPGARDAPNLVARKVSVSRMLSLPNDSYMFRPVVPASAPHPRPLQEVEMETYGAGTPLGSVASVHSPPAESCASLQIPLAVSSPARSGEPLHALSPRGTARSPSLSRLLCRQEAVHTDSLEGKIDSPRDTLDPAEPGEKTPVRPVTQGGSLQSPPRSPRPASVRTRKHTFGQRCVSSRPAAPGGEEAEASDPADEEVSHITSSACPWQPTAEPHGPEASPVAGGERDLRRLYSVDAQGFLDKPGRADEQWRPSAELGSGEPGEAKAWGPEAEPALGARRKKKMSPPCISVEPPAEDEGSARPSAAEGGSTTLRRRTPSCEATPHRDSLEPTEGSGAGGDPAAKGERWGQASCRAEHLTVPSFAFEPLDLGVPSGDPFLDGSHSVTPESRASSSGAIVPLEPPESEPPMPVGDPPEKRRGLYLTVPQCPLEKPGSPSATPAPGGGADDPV
# Assay type: functional
Activity calls are given as the source filed them.
parameter_measured: EC50

Look up EC50 for this compound: `CC1CCN(C(=O)C2CCN(CCCc3ccccc3)CC2)CC1`
7.69 µM (active)

# get_value(readout='EC50', item= `CC(=O)OCc1c(C(F)(F)F)nn(C)c1Oc1cccc(C(F)(F)F)c1` )
8.45 µM (active)

Please report the recorded EC50 for O=C(c1ccccc1)N1CC(COc2ccccc2)OC(c2ccco2)O1 (stereo not given) .
12.4 µM (active)

EC50 lookup needed for `O=C(Nc1ccc2c(c1)OCO2)N1CCN(c2ncc(C(F)(F)F)cc2Cl)CC1` , thanks.
1.99 µM (active)

# query: EC50 of entry `CCOc1ccc(NC(=O)CN(c2cccc(C(F)(F)F)c2)S(C)(=O)=O)cc1`
9.24 µM (active)

====

// values below are AC50; system is Cytochrome P450 2D6 (Homo sapiens);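 note: CYP2D6 member of a cytochrome P450 panel assay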
Sequence (P10635 whole entry): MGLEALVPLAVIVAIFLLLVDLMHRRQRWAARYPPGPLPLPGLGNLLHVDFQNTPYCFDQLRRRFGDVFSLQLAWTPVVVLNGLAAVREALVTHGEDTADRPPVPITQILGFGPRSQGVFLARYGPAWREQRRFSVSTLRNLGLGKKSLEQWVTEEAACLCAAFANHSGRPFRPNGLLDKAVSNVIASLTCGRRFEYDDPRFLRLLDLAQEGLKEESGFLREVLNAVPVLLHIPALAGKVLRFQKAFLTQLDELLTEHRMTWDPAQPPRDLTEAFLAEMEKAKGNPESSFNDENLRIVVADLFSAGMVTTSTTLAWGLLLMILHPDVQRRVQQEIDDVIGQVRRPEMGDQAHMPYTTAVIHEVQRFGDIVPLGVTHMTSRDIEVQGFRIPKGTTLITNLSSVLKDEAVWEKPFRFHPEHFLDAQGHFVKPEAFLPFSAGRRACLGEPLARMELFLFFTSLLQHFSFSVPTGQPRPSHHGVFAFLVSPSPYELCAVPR

Could you tell me which AC50 is on file for `COCc1nnc(NC(=O)CC(c2ccccc2)c2ccccc2)s1` ?
2 µM (inconclusive)

State the recorded AC50 for this entry: `Cc1cc2cc3c(cc2nc1SCC(=O)Nc1c(C)cccc1C)CCC3`
14.1 µM (inconclusive)

For the compound shown here, `Cc1cccc(OCC(=O)NNC(=O)CSc2ncc(C#N)c(N)n2)c1` , give the reported AC50.
4.47 µM (inconclusive)

Sample `COc1ccc(-c2nc3cnc(OC)nc3n(Cc3cccs3)c2=O)cc1` — what was its AC50?
7.94 µM (inconclusive)

State the recorded AC50 for this entry: `CCCN1CCc2cc(O)cc3c2[C@H]1Cc1ccc(O)c(O)c1-3`
15.8 µM (inconclusive)

May I ask what AC50 has been recorded for `COc1cc(O)oc1/C=N/c1ccc(Cl)cc1` ?
14.1 µM (inconclusive)

So what's the measured AC50 for this one? `C[C@@H]1CN(CCCn2c3ccccc3c3ccccc32)C[C@H](C)N1`
15.8 µM (inconclusive)

Can you share its AC50? I mean this compound: `N#Cc1c(-c2ccc3c(c2)OCO3)ccn2nc(-c3cccc(C(F)(F)F)c3)nc12`
3.16 µM (inconclusive)

====

Give IC50 for every item shown.
# target_entity: Carboxy-terminal domain RNA polymerase II polypeptide A small phosphatase 1 (Homo sapiens)
# Sequence (Q9GZU7 whole entry, the tested form may be a part): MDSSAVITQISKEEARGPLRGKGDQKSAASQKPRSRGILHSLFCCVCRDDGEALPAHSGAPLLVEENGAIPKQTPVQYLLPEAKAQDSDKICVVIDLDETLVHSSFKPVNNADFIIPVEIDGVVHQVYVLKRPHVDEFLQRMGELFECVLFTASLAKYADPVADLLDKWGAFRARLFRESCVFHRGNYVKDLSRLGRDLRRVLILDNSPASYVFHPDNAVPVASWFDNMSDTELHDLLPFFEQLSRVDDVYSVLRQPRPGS
# run_description: inhibitors of CTDSP1, concentration-response testing, biochemical assay, absorbance-based, actives from ultra-high-throughput screening (AID 540297)
# Type: functional
Active and inactive are the calls of the source.

# get_value(readout= IC50, system= Carboxy-terminal domain RNA polymerase II polypeptide A small phosphatase 1 (Homo sapiens)) for `COc1cc(O)c(C(C)=O)c(CC(=O)O)c1`
3.5 µM (active)

// lookup IC50 | system=Carboxy-terminal domain RNA polymerase II polypeptide A small phosphatase 1 (Homo sapiens) | key= `O=C(Nc1cc([N+](=O)[O-])ccc1O)c1cccc(C(=O)Nc2cc([N+](=O)[O-])ccc2O)c1`
1.03 µM (active)

Item `O=C(N/N=C/c1ccc(Br)cc1)c1ccc(Br)o1` with Carboxy-terminal domain RNA polymerase II polypeptide A small phosphatase 1 (Homo sapiens) - IC50?
6.85 µM (active)

Form: Entry = C=C(C)CCOC(=O)C(CC(=O)O)NCc1ccco1 (stereo unspecified) | System = Carboxy-terminal domain RNA polymerase II polypeptide A small phosphatase 1 (Homo sapiens) | IC50 = ____
4.85 µM (active)

Give IC50 (Carboxy-terminal domain RNA polymerase II polypeptide A small phosphatase 1 (Homo sapiens)) of the following compound: `Cc1ccc(/C=c2\sc3nc(-c4ccccc4Br)nn3c2=O)o1`
5.95 µM (active)

Hello, I am looking for reported IC50 with Carboxy-terminal domain RNA polymerase II polypeptide A small phosphatase 1 (Homo sapiens) for `Oc1c(Br)cc(/C=N/n2c(S)nnc2-c2ccccc2)cc1Br` . Could you help?
1.54 µM (active)
